System: NAMALWA (Burkitt's Lymphoma);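 note: after 72 h of two-drug dosing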
assay_procedure: Bliss excess, mean over the matrix (fraction); higher = more synergy

molecule: CN(CCO)CC[C@H](CSc1ccccc1)Nc1ccc(S(=O)(=O)NC(=O)c2ccc(N3CCC([C@@H](O)c4ccccc4-c4ccc(Cl)cc4)CC3)cc2)cc1S(=O)(=O)C(F)(F)F [AZD4320] + C1CN(CCC1(C(=O)N[C@@H](CCO)C2=CC=C(C=C2)Cl)N)C3=NC=NC4=C3C=CN4 [Capivasertib] (first compound max 1 µM, 7x7, partner max 3 µM)
Bliss excess: 0.0419
//
molecule: CN(CCO)CC[C@H](CSc1ccccc1)Nc1ccc(S(=O)(=O)NC(=O)c2ccc(N3CCC([C@@H](O)c4ccccc4-c4ccc(Cl)cc4)CC3)cc2)cc1S(=O)(=O)C(F)(F)F [AZD4320] + C[C@@H]1COCCN1C2=NC(=NC(=C2)C3(CC3)[S@](=N)(=O)C)C4=C5C=CNC5=NC=C4 [AZD6738] (first compound max 1 µM, 7x7, partner max 10 µM)
Bliss excess: 0.0006
